Cited source: PubChem BioAssay AID2013

compounds and their reported inhibition
assay_target: G-protein coupled receptor 55 (Homo sapiens)
test: GPR55 antagonists blocking LPI-driven arrestin recruitment, primary screen, imaging, U2OS, beta-arrestin-GFP, LPI agonist (AID 2013);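 note: U2OS cells stably carrying GPR55 and arrestin-GFP stimulated by 5 µM LPI near EC80; imaged beta-arrestin-GFP aggregate spots per cell after agonist stimulation; plate controls were LPI-stimulated DMSO wells for no effect and DMSO wells without LPI for full effect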
measurement_conditions: U2OS GPR55 beta-arrestin-GFP translocation imaging, LPI antagonism; at 10 µM; active compounds read high
In all, about 290,000 compounds went through this assay and about 370 (0.13%) were called active. The sample as a whole holds a higher share of actives than the screen did. Potency and affinity values are given separately.
Give a bare numeral; the unit % is implied.

Examples with their reported inhibition follow.
{"compound": "O=C(NCCCN1CCN(c2ccc(F)cc2)CC1)NC12CC3CC(CC(C3)C1)C2", "inhibition, %": -1.6}
{"compound": "N=c1c2c(ncn1Cc1ccco1)Oc1ccc3ccccc3c1C2c1ccccc1 (configuration not stated)", "inhibition, %": 17.8}
{"compound": "O=C1NC(c2ccccc2)=NC1(Nc1ccccn1)C(F)(F)F (configuration not stated)", "inhibition, %": 13.1}

[Q] Indicate its recorded inhibition; the compound in question is Cc1ccc(NC(=O)COC(=O)C2CC3C=CC2C3)cc1S(=O)(=O)N1CCCCC1 (configuration not stated)
[A] 64.8

[Q] Indicate its recorded inhibition; the compound in question is CCOC(=O)c1cnc2c(c(C)nn2C)c1Oc1ccc(OC)cc1
[A] 24.7
